Quick reference for COX2 2 minutes pge2/pge2d4 area ratio Avg. LLE among some compounds
- Subject Of Test: human recombinant COX2 (hCOX2) (UniProt P35354)
- Sequence (P35354 1-604): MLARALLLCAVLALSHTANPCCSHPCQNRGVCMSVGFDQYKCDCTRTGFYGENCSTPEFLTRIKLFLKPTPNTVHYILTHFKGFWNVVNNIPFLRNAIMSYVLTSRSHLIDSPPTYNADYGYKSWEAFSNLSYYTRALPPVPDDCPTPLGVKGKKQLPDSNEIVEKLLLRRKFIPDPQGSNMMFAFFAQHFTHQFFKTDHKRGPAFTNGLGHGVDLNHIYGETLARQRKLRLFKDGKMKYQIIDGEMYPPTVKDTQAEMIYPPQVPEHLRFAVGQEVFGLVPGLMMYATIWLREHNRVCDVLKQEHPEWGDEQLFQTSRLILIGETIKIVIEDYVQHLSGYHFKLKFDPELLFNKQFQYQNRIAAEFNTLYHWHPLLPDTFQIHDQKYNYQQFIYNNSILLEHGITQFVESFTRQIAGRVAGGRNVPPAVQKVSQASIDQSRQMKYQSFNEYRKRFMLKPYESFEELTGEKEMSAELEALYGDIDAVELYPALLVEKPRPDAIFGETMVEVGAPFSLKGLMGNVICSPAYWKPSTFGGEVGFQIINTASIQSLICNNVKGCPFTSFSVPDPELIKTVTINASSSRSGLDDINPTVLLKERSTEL
- Experimental Protocol: LCMS-based COX2 enzymatic inhibition assay (PGE2 quantification)
- Assay type: biochemical
- Design: COX2 2 minutes pge2/pge2d4 area ratio Avg; other: 2 minutes; readout pge2/pge2d4 area ratio; average; COX2 2 minutes pge2/pge2d4 area ratio Avg; LLE; average LLE; COX2 2 minutes pge2 area (counts) Avg; readout pge2 area (counts); other: 2 min; "ovine COX2 (oCOX2), human recombinant COX2 (hCOX2)"
- Reported Conditions: 2 minutes; readout pge2/pge2d4 area ratio; average LLE
Answer using only a numeral; do not append any unit.

{"Input Smiles": "CS(=O)(=O)c1ccc(-c2cncc(OCc3ccc(Cl)o3)n2)cc1", "Reported": 2.9422}
{"Input Smiles": "CS(=O)(=O)c1ccc(-c2cncc(OCc3ccco3)n2)cc1", "Reported": 4.842}
{"Input Smiles": "CS(=O)(=O)c1ccc(-c2cncc(OCc3ccc(Cl)s3)n2)cc1", "Reported": 4.855}

COX2 2 minutes pge2/pge2d4 area ratio Avg. LLE in this record for "Cn1nccc1CNc1cccc(-c2ccc(S(C)(=O)=O)cc2)n1" : 3.969

Entry "CS(=O)(=O)c1ccc(-c2cccc([S@+]([O-])Cc3cccs3)n2)cc1" ; COX2 2 minutes pge2/pge2d4 area ratio Avg. LLE = 3.082

Memo: "CS(=O)(=O)c1ccc(-c2cccc(NCc3ccoc3)n2)cn1" , reported COX2 2 minutes pge2/pge2d4 area ratio Avg. LLE: 4.956

// sample "CS(=O)(=O)c1ccc(-c2nc(NCc3cccs3)cnc2C#N)cc1" , its COX2 2 minutes pge2/pge2d4 area ratio Avg. LLE was 4.781

Form field COX2 2 minutes pge2/pge2d4 area ratio Avg. LLE, entry "CS(=O)(=O)c1ccc(-c2cnc(C(F)(F)F)c(OCc3cccs3)n2)cc1" : 3.641

Notebook: "Cc1ncc(-c2ccc(S(C)(=O)=O)cc2)nc1OCc1cccs1" , COX2 2 minutes pge2/pge2d4 area ratio Avg. LLE read as 5.142

The value of COX2 2 minutes pge2/pge2d4 area ratio Avg. LLE measured for the compound "CS(=O)(=O)c1ccc(-c2cccc(C(=O)Nc3cccs3)n2)cc1" turned out to be 2.264
